All figures here come from patent US12018021B2.

biological target: IgE-Tb / sFcεRIα-Y131A-AF488 (Homo sapiens, UniProt P01854, N146Q/N252Q); assay: IgE-Tb / sFcεRIα-Y131A-AF488 FRET assay (protocol for examples 234 to 501); details: examples 234 to 501: compound with IgE-Tb 30 minutes before sFcεRIα-Y131A-AF488, incubated 18 hours at room temperature; read-out: Y131A FRET IC50 range
Sequence (P01854 whole entry N146Q/N252Q): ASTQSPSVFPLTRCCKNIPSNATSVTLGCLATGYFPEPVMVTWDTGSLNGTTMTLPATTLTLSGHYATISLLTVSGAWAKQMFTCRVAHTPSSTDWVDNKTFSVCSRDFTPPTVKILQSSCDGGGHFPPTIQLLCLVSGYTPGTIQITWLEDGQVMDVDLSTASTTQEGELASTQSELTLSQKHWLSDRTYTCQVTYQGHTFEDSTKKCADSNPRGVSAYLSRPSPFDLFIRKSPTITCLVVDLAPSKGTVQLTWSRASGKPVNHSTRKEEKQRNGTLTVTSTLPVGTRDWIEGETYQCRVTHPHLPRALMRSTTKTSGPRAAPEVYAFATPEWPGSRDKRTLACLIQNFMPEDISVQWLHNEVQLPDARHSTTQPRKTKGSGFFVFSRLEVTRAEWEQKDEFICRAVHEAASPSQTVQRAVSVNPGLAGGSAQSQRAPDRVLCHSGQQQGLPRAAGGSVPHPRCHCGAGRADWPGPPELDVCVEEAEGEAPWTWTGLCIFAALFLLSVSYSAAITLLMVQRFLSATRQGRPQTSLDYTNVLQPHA
property.measured: IC50

[
  {
    "compound": "O=C(NCC1CC1)c1c(NC(=O)C2CC2)sc2c1C[C@@H](n1cnnc1NC1CCS(=O)(=O)C1)CC2 (single isomer, unassigned)",
    "IC50": "< 1 µM"
  }
]

List reported IC50 for each of these compounds:
1. Cn1nc(OC2CC2)cc1Nc1nncn1[C@H]1CCc2sc(NC(=O)[C@H]3C[C@@H]3F)c(C(=O)NCC3CC3)c2C1
2. Cn1nc(C(F)(F)F)cc1Nc1nncn1[C@H]1CCc2sc(NC(=O)[C@H]3C[C@H]3F)c(C(=O)N[C@@H]3CC34CC4)c2C1 (single isomer, unassigned)

Reply:
< 1 µM
< 1 µM

* * *

target: IgE-Tb / sFcεRIα-Y131A-AF488 (Homo sapiens, UniProt P01854, N146Q/N252Q); experiment: IgE-Tb / sFcεRIα-Y131A-AF488 FRET assay (protocol for examples 234 to 501); conditions: examples 234 to 501: compound with IgE-Tb 30 minutes before sFcεRIα-Y131A-AF488, incubated 18 hours at room temperature; read-out: Y131A FRET IC50 range
property.measured: IC50

Before answering, review these 5 worked examples.
[
  {
    "molecule": "Cn1nc(OC(F)F)cc1Nc1nncn1[C@H]1CCc2sc(NC(=O)[C@H]3C[C@@H]3F)c(C(=O)N[C@H]3CC34CC4)c2C1 (relative stereo)",
    "system.tested": "IgE-Tb / sFcεRIα-Y131A-AF488 (Homo sapiens, UniProt P01854, N146Q/N252Q)",
    "IC50": "< 1000 nM"
  },
  {
    "molecule": "Cc1c(Nc2nncn2[C@H]2CCc3sc(NC(=O)C4CC4)c(C(=O)NCC4CC4)c3C2)cccc1[S+](C)[O-] (stereo partly drawn)",
    "system.tested": "IgE-Tb / sFcεRIα-Y131A-AF488 (Homo sapiens, UniProt P01854, N146Q/N252Q)",
    "IC50": "< 1000 nM"
  },
  {
    "molecule": "C[S+]([O-])c1cccc(Nc2nncn2[C@H]2CCc3sc(NC(=O)C4CC4)c(C(=O)NCC4CC4)c3C2)c1 (stereo partly drawn)",
    "system.tested": "IgE-Tb / sFcεRIα-Y131A-AF488 (Homo sapiens, UniProt P01854, N146Q/N252Q)",
    "IC50": "< 1000 nM"
  },
  {
    "molecule": "Cn1nc(C(F)F)cc1Nc1nncn1[C@H]1CCc2sc(NC(=O)C3CC3)c(C(=O)N[C@@H]3CC34CC4)c2C1",
    "system.tested": "IgE-Tb / sFcεRIα-Y131A-AF488 (Homo sapiens, UniProt P01854, N146Q/N252Q)",
    "IC50": "< 1000 nM"
  },
  {
    "molecule": "Cn1nc(C(F)F)cc1Nc1nncn1[C@H]1CCc2sc(NC(=O)[C@H]3C[C@H]3F)c(C(=O)NCC3CC3)c2C1 (mixture of isomers) [Example 361]",
    "system.tested": "IgE-Tb / sFcεRIα-Y131A-AF488 (Homo sapiens, UniProt P01854, N146Q/N252Q)",
    "IC50": "< 1000 nM"
  }
]

Report IC50 for each item below.
1. Cc1c(Nc2nncn2[C@H]2CCc3sc(NC(=O)C4CC4)c(C(=O)NCC4CC4)c3C2)cccc1[S@](C)(=N)=O (single isomer, unassigned)
2. Cn1nc(OC(F)F)cc1Nc1nncn1[C@H]1CCc2sc(NC(=O)C3CC3)c(C(=O)NCC3CC(F)(F)C3)c2C1
3. Cn1nc(C(F)(F)F)cc1Nc1nncn1[C@H]1CCc2sc(NC(=O)[C@H]3C[C@H]3F)c(C(=O)N[C@H]3C[C@H](F)C3)c2C1
4. Cn1nc(C(F)F)cc1Nc1nncn1[C@H]1CCc2sc(NC(=O)[C@H]3CC34CC4)c(C(=O)NC[C@H]3CC3(F)F)c2C1 (single isomer, unassigned)
5. Cn1nc(OC(F)F)cc1Nc1nncn1[C@H]1CCc2sc(NC(=O)[C@H]3C[C@H](F)C3)c(C(=O)NCC3CC3)c2C1
6. C[C@H]1C[C@@H]1C(=O)Nc1sc2c(c1C(=O)NC[C@H]1C[C@@H](F)C1)C[C@@H](n1cnnc1Nc1cc(C(F)F)nn1C)CC2

Reply:
["< 1000 nM", "< 1000 nM", "< 1000 nM", "< 1000 nM", "< 1000 nM", "< 1000 nM"]

Ask: Quick one: IC50 for Cn1nc(C(F)F)cc1Nc1nncn1[C@H]1CCc2sc(NC(=O)[C@H]3CC34CC4)c(C(=O)NC[C@H]3C[C@H]3F)c2C1 ?
Reply: < 1000 nM
